MEASURED TARGET: p-EGFR Del19/C797S (H1975-clone #23 cells) (Homo sapiens, UniProt P00533)
Sequence (P00533 with tags, fused parts or gaps DEL746-750/C797S, form open): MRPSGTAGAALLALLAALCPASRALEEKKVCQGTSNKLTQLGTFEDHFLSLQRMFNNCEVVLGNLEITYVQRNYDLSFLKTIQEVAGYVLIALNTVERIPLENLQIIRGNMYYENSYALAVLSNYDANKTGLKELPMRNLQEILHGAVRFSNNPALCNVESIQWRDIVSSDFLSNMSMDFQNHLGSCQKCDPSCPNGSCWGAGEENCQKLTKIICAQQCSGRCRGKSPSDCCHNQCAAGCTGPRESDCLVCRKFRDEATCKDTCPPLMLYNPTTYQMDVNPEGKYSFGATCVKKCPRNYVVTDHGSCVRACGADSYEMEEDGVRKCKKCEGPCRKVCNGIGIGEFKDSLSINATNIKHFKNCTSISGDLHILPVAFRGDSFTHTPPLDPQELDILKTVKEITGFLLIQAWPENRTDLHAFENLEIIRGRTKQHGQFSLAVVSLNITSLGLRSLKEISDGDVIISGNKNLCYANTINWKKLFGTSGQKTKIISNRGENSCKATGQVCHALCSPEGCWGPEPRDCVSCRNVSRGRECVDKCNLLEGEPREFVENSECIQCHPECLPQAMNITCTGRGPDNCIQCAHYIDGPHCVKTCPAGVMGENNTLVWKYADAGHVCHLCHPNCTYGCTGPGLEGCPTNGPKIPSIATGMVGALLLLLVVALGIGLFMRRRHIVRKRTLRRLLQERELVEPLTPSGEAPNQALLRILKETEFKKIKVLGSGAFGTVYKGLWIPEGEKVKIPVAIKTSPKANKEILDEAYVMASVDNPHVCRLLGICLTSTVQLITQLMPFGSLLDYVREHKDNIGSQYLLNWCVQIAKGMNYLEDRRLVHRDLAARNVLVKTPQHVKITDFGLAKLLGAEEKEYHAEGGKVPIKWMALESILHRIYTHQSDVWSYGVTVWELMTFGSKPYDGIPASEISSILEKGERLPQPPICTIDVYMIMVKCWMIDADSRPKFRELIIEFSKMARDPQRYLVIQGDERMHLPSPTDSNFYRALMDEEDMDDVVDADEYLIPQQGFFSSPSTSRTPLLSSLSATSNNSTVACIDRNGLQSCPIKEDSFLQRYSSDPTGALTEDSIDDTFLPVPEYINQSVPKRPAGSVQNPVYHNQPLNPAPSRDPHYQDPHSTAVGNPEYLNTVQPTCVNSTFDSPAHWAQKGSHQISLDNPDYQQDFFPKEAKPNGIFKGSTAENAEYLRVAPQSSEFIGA
ASSAY REMARKS: Cell p-EGFR inhibition assay, HTRF, H1975-clone#23 (DEL19/C797S) cells
EXPERIMENTAL CONTEXT: 16 h treatment, pEGFR inhibition
RECORDED METRIC: pIC50
// scale note: pIC50 = -log10(conc_M); give the bare number

1. Cc1cc2cc(n1)-c1c(C(F)F)nn(C)c1OC[C@H]1CCC(C1)CN1/C(=N/C2=O)Nc2ccc(N3CCN(C4CCN(c5c(F)cc(NC6CCC(=O)NC6=O)cc5F)CC4)CC3)cc21 (stereo partly shown) :: 8.66
2. Cc1cc2cc(n1)-c1c(C)nn(C)c1OC[C@H]1CC[C@H](C1)CN1/C(=N/C2=O)Nc2ccc(N3CCN([C@H]4CCN(c5cc(F)c([C@H]6CCC(=O)NC6=O)c(F)c5)C4)CC3)cc21 (single isomer, unassigned) :: 8.62
3. COC[C@@H]1CN(c2cc3c(cc2F)N/C2=N\C(=O)c4cc(C)nc(c4)-c4cnn(C)c4OC[C@H]4CCC(C4)CN23)CCN1C1CCN(c2cc(F)c([C@H]3CCC(=O)NC3=O)c(F)c2)CC1 :: 8.82
4. CC[C@H]1CN(c2ccc3c(c2)N2C[C@@H]4CC[C@H](COc5c(c(C)nn5C)-c5cc(cc(C)n5)C(=O)/N=C/2N3)C4)CCN1C1CCN(c2cc(F)c([C@H]3CCC(=O)NC3=O)c(F)c2)CC1 :: 8.68
5. COC[C@@H]1CN(c2ccc3c(c2)N2C[C@@H]4CCC(COc5c(c(C)nn5C)-c5cc(cc(C)n5)C(=O)/N=C/2N3)C4)CCN1C1CN(C2CCN(c3cc(F)c([C@H]4CCC(=O)NC4=O)c(F)c3)CC2)C1 :: 9.15
6. Cc1cc2cc(n1)-c1cnn(C)c1OC[C@H]1CCC(C1)CN1/C(=N/C2=O)Nc2ccc(N3CCN(C4CCN(c5ccc(NC6CCC(=O)NC6=O)nc5C)CC4)CC3)cc21 (stereo partly shown) :: 8.85
7. COC[C@H]1CN(c2ccc3c(c2)N2C[C@@H]4CC[C@H](COc5c(c(C)nn5C)-c5cc(cc(C)n5)C(=O)/N=C/2N3)C4)CCN1C1CN(C2CCN(c3cc(F)c([C@H]4CCC(=O)NC4=O)c(F)c3)CC2)C1 :: 9.07
8. COC[C@@H]1CN(c2ccc3c(c2)N2CC4CC[C@H](COc5c(cnn5C)-c5cc(cc(C)n5)C(=O)/N=C/2N3)C4)CCN1C1CN(C2CCN(c3cc(F)c([C@H]4CCC(=O)NC4=O)c(F)c3)CC2)C1 :: 9.22

Answer with the recorded pIC50 for the compound listed here: Cc1nn(C)c2c1-c1cc(cc(Cl)n1)C(=O)/N=C1\Nc3ccc(N4CCN(C5CCN(c6cc(F)c([C@H]7CCC(=O)NC7=O)c(F)c6)CC5)CC4)cc3N1C[C@@H]1CC[C@H](CO2)C1
8.55

###

MEASURED TARGET: EGFR L858R (BaF3-L858R cells) (Homo sapiens, UniProt P00533, L858R)
Construct: host or cells: BaF3
Sequence (P00533 25-1210 L858R): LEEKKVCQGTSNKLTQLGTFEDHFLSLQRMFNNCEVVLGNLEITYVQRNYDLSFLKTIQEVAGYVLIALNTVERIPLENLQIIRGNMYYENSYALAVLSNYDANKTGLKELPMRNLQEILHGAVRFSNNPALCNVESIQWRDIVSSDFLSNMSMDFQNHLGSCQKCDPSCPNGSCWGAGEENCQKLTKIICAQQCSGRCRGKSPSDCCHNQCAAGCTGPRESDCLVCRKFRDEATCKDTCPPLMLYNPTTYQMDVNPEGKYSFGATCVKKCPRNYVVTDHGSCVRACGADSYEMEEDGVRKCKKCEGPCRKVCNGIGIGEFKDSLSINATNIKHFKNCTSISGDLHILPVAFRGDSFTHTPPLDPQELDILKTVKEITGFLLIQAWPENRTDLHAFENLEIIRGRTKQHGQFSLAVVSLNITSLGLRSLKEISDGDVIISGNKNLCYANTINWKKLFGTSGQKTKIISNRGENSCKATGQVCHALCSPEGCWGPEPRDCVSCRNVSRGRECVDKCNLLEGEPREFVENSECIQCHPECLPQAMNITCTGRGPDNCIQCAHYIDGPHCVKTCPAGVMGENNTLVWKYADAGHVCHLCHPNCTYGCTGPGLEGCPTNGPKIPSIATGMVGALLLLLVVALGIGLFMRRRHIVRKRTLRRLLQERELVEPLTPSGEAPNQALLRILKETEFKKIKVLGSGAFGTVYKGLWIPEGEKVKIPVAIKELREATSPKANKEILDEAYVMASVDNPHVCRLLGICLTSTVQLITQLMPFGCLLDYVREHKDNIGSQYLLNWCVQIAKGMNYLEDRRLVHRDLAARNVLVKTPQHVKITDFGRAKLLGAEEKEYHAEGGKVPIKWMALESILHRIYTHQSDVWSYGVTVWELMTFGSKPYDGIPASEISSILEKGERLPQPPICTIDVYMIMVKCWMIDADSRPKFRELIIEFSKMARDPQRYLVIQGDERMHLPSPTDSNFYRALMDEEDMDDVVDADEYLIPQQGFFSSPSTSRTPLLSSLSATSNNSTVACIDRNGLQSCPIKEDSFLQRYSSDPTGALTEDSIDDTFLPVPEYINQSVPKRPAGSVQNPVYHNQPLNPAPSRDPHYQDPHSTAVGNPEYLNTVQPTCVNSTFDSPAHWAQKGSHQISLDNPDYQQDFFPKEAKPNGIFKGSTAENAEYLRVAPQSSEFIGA
ASSAY REMARKS: Cell degradation of EGFR, HTRF assay, BaF3-L858R cells
Assay type: cell-based
EXPERIMENTAL CONTEXT: 16 h treatment, EGFR degradation
RECORDED METRIC: DC50

Completed entries (count: 4):
1) Cc1cc2cc(n1)-c1cnn(C)c1OC[C@H]1CC[C@H](C1)CN1/C(=N/C2=O)Nc2ccc(N3CCN(C4CCN(c5ccc([C@H]6CCC(=O)NC6=O)nc5C)CC4)[C@H](C)C3)cc21 :: 4.86 nM
2) Cc1cc2cc(n1)-c1c(C)nn(C)c1OC[C@H]1CCC(C1)CN1/C(=N/C2=O)Nc2ccc(N3CCN(C4CCN(c5cc(F)c([C@H]6CCC(=O)NC6=O)c(F)c5)CC4)CC3)cc21 :: 0.99 nM
3) COC[C@H]1CN(c2ccc3c(c2)N2C[C@@H]4CC[C@H](COc5c(c(C)nn5C)-c5cc(cc(C)n5)C(=O)/N=C/2N3)C4)CCN1C1CCN(c2c(C)cc(NC3CCC(=O)NC3=O)nc2C)CC1 (some centres unmarked) :: 9.56 nM
4) Cc1cc2cc(n1)-c1c(C)nn(C)c1OC[C@H]1CC[C@H](C1)CN1/C(=N/C2=O)Nc2ccc(N(C)C3CCN(C4CCN(c5cc(F)c([C@H]6CCC(=O)NC6=O)c(F)c5)CC4)CC3)cc21 :: 5.23 nM

Now consider the entry below.
Answer with the recorded DC50 for the compound listed here: COC[C@@H]1CN(c2ccc3c(c2)N2C[C@@H]4CC[C@H](COc5c(c(C)nn5CCO)-c5cc(cc(C)n5)C(=O)/N=C/2N3)C4)CCN1C1CCN(c2cc(F)c([C@H]3CCC(=O)NC3=O)c(F)c2)CC1
2.03 nM

###

MEASURED TARGET: p-EGFR L858R (BaF3-L858R cells) (Homo sapiens, UniProt P00533, L858R)
ASSAY REMARKS: Cell p-EGFR inhibition assay, HTRF, BaF3-L858R cells
EXPERIMENTAL CONTEXT: 16 h treatment, pEGFR inhibition
Protocol: BaF3-L858R (abbv. L858R) cell were purchased from Kangyuan Bochuang Biotechnology (Beijing) Co., Ltd. H1975-#23 and BaF3-L858R cells are treated with compounds diluted in 0.1% DMSO cell culture medium on day 2, incubate for 16 h, 37° C., 5% CO2. the final concentration of compounds in all assay is start with 10 uM, 5-fold dilution, total 8 doses were included. […] High control=Cell group with added DMSO and without compound, indicating microplate readings without p-EGFR inhibited. […]
This listing pairs compounds with measured pIC50.
// scale note: pIC50 = -log10(conc_M); give the bare number

1. COC[C@H]1CN(c2ccc3c(c2)N2C[C@H]4CC[C@@H](COc5c(c(C)nn5C)-c5cc(cc(C)n5)C(=O)/N=C/2N3)C4)CCN1C1CCN(c2cc(F)c([C@H]3CCC(=O)NC3=O)c(F)c2)CC1 :: 7.14

Answer with the recorded pIC50 for the compound listed here: COc1cc2c(cc1N1CCN(C3CCN(c4cc(F)c([C@H]5CCC(=O)NC5=O)c(F)c4)CC3)CC1)N1C[C@@H]3CC[C@H](COc4c(c(C)nn4C)-c4cc(cc(C)n4)C(=O)/N=C/1N2)C3
7.82

Answer with the recorded pIC50 for the compound listed here: Cc1cc2cc(n1)-c1c(C)nn(C)c1OC[C@H]1CC[C@H](C1)CN1/C(=N/C2=O)Nc2ccc(N3CCN(C4CCN(c5cc(F)c([C@H]6CCC(=O)NC6=O)c(F)c5)CC4)C[C@@H]3CF)cc21
8.69

Answer with the recorded pIC50 for the compound listed here: Cc1cc2cc(n1)-c1cnn(C)c1OC[C@H]1CCC(C1)CN1/C(=N/C2=O)Nc2ccc(N3CCC(N4CCC(Oc5cc(F)c([C@H]6CCC(=O)NC6=O)c(F)c5)CC4)CC3)cc21
7.77

Answer with the recorded pIC50 for the compound listed here: COC[C@H]1CN(c2ccc3c(c2)N2CC4CC[C@H](COc5c(c(C(F)F)nn5C)-c5cc(cc(C)n5)C(=O)/N=C/2N3)C4)CCN1C1CCN(c2cc(F)c([C@H]3CCC(=O)NC3=O)c(F)c2)CC1
8.36

Answer with the recorded pIC50 for the compound listed here: COC[C@H]1CN(c2ccc3c(c2)N2CC4CC[C@H](COc5c(c(C)nn5C)-c5cc(cc(C)n5)C(=O)/N=C/2N3)C4)CCN1C1CCN(c2cc(F)c(C3CCC(=O)NC3=O)nc2C)CC1 (stereo partly shown)
8.20

Answer with the recorded pIC50 for the compound listed here: Cc1cc2cc(n1)-c1cnn(C)c1OC[C@H]1CCC(C1)CN1/C(=N/C2=O)Nc2ccc(N3CCN([C@@H]4CCN(c5ccc(C6CCC(=O)NC6=O)nc5C)CC4(F)F)CC3)cc21 (stereo partly shown)
8.00

Answer with the recorded pIC50 for the compound listed here: COC[C@@H]1CN(c2ccc3c(c2)N2CC4CC[C@H](COc5c(cnn5C)-c5cc(cc(C)n5)C(=O)/N=C/2N3)C4)CCN1C1CCN(c2c(F)cc(NC3CCC(=O)NC3=O)cc2F)CC1 (stereo partly shown)
7.71

Answer with the recorded pIC50 for the compound listed here: Cc1cc2cc(n1)-c1c(C)nn(C)c1OC[C@H]1CC[C@H](C1)CN1/C(=N/C2=O)Nc2ccc(N3CCC(N4CCC(Nc5cc(F)c([C@H]6CCC(=O)NC6=O)c(F)c5)CC4)CC3)cc21 (single isomer, unassigned)
9.06

Answer with the recorded pIC50 for the compound listed here: COC[C@H]1CN(c2cc3c(cc2C)N/C2=N\C(=O)c4cc(C)nc(c4)-c4c(C)nn(C)c4OC[C@H]4CC[C@H](C4)CN23)CCN1C1CCN(c2cc(F)c([C@H]3CCC(=O)NC3=O)c(F)c2)CC1
8.21

Answer with the recorded pIC50 for the compound listed here: Cc1cc2cc(n1)-c1cnn(C)c1OC[C@H]1CCC(C1)CN1/C(=N/C2=O)Nc2ccc(N3CC(N(C)C4CCN(c5cc(F)c([C@H]6CCC(=O)NC6=O)c(F)c5)CC4)C3)cc21
7.77

Answer with the recorded pIC50 for the compound listed here: Cc1cc2cc(n1)-c1c(C(F)F)nn(C)c1OC[C@H]1CCC(C1)CN1/C(=N/C2=O)Nc2ccc(N3CCN(C4CCN(c5c(F)cc(NC6CCC(=O)NC6=O)cc5F)CC4)CC3)cc21 (stereo partly shown)
8.10
